test: CNS penetration: total and unbound drug concentrations in tumor regions, CSF and plasma (LC-MS/MS, equilibrium dialysis); conditions: human, non-enhancing tumor, oral, Total everolimus, MAX, 2.5 mg QD 5 days;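 also: drug levels in patient tumor tissue from contrast-enhancing and non-enhancing regions sampled under MRI-guided neuronavigation, with plasma and CSF drawn during surgical resection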
REPORTED METRIC: concentration at 5 days (nM)
Numbers only, in nM.

Query: Entry CO[C@H]1C[C@@H]2CC[C@@H](C)[C@@](O)(O2)C(=O)C(=O)N2CCCC[C@H]2C(=O)O[C@H]([C@H](C)C[C@@H]2CC[C@@H](OCCO)[C@H](OC)C2)CC(=O)[C@H](C)/C=C(\C)[C@@H](O)[C@@H](OC)C(=O)[C@H](C)C[C@H](C)/C=C/C=C/C=C/1C has what concentration at 5 days?
Response: 35.3
